# System: COLO 205
# experimentSummary: NCI tumour cell line growth inhibition, 48 h
The source made the active and inactive calls. No stated cut-off is given here; in the data, active = GI50 up to about 1.1 µM and inactive = higher.
measurementName: GI50

Illustrative cases are given below, each with its answer.
>>> testvalue("CCNC1CC(C(C)(C)NCC)CC=C1C (stereo unspecified)")
"> 100 µM (inactive)"
>>> testvalue("CC(C)c1cc(C(C)C)c(P2(=O)CC3C(Cl)(Cl)C3(C)C2)c(C(C)C)c1 (stereo unspecified)")
"11.7 µM (inactive)"
>>> testvalue("CC(C)(C)C(=O)N(C(=S)OCc1ccccn1)c1ccccc1")
"21.8 µM (inactive)"
>>> testvalue("c1ccc2c(c1)OC(N1CCCC1)c1cnc(N3CCOCC3)nc1-2 (stereo unspecified)")
"51.2 µM (inactive)"

For each of the molecules below, state GI50.
1. COc1cc2c(cc1OC)C(=O)N(NC1=NCCN1)C2=O
2. CN1CCN(C(=O)CCC(=O)Nc2cc3c(c4ccccc24)-c2ccc4ccccc4c2C3)CC1

**Result**
1. > 100 µM (inactive)
2. 1.6 µM (inactive)

====

# Test system: SF-268
# experimentSummary: NCI tumour cell line growth inhibition, 48 h
Active and inactive are the calls of the source. No stated cut-off is given here; in the data, active = GI50 up to about 1.1 µM and inactive = higher.
Would you mind answering with one of these outcomes? YES = active, NO = inactive

Look over these answered cases.
>>> category("COc1ccc2c(c1)-c1oc3ccccc3c(=O)c1CO2")
"NO"
>>> category("Nn1c(S)nnc1COc1cccc(OCc2nnc(S)n2N)c1")
"NO"
>>> category("CCSC1=N/C(=C\\c2ccco2)C(Cl)=N1")
"NO"
>>> category("CN(c1ccc(C(=O)c2ccc(N(C)S(C)(=O)=O)cc2)cc1)S(C)(=O)=O")
"NO"
>>> category("COC(=O)C(C)(C)[C@@H]1OC(=O)N(S(=O)(=O)c2c(C)cc(C)cc2C)[C@H]1C(C)C")
"NO"

**Query** Test call for this compound, please: "Cc1nc(N)nc(N)c1CCCCc1ccc(N)cc1"
**Result** YES

**Query** Test call for this compound, please: CCCCCCCCCCC(C)CCCCCCC(=O)OCC(COP(=O)([O-])OCC[N+](C)(C)C)OC(=O)CCCCCCC(C)CCCCCCCCCC (configuration not stated)
**Result** NO

**Query** Test call for this compound, please: COc1cc(C2c3cc4c(cc3OC(NC3CCCCC3)C2C)OCO4)cc(OC)c1OC (configuration not stated)
**Result** YES

====

# System: UO-31
# experimentSummary: NCI tumour cell line growth inhibition, 48 h
Activity calls are given as the source filed them. Cut-off read from the data, not from the text of the source: active = GI50 up to about 1.1 µM and inactive = higher.
Would you mind answering with one of these outcomes? true (1) for active, false (0) for inactive

Look over these answered cases.
>>> category("CCCCCCCCOC1C(O)C(O)C(O)C(O)C12CO2 (configuration not stated)")
"false (0)"
>>> category("COC(=O)/C=C\\COCC1C2CCC(=O)C21 (configuration not stated)")
"false (0)"

**Query** Test call for this compound, please: "CN1CCN(C(=O)CCC(=O)Nc2cc3c(c4ccccc24)-c2ccc4ccccc4c2C3)CC1"
**Result** false (0)

**Query** Test call for this compound, please: "Cc1ccc(/C=C(\NC(=O)c2ccccc2)c2nc3ccccc3[nH]2)cc1"
**Result** false (0)

**Query** Test call for this compound, please: CC1(CO)COS(=O)OC1 (configuration not stated)
**Result** false (0)

**Query** Test call for this compound, please: CN(C)CC1CCC/C(=C\c2ccc(OC(=O)c3ccc(Cl)cc3)cc2)C1=O (configuration not stated)
**Result** false (0)

**Query** Test call for this compound, please: "Cc1ccc(/C=N/Nc2ccccn2)s1"
**Result** false (0)

**Query** Test call for this compound, please: COc1ccc(/N=N/C(=O)NC(CC(C)C)C(N)=O)cc1 (configuration not stated)
**Result** false (0)

**Query** Test call for this compound, please: COC1OC2COC1(OC)C1OC(C)(C)OC21 (configuration not stated)
**Result** false (0)

====

# System: HT-29
# experimentSummary: NCI tumour cell line growth inhibition, 48 h
Activity calls are given as the source filed them. Cut-off read from the data, not from the text of the source: active = GI50 up to about 1.1 µM and inactive = higher.
measurementName: GI50

Illustrative cases are given below, each with its answer.
>>> testvalue("CCCCCCCCCCCCn1[nH]c(C)c(C(=S)SCCCCCCCC)c1=O")
"76.2 µM (inactive)"
>>> testvalue("COC(=O)C1=C(C)NC(C)=C([N+](=O)[O-])C1c1cccc(NO)c1 (stereo unspecified)")
"2.86 µM (inactive)"
>>> testvalue("CCNC(=S)N/N=C/c1ccccn1")
"4.47 µM (inactive)"
>>> testvalue("O=Cc1cc(O)ccc1Br")
"18.2 µM (inactive)"
>>> testvalue("CN(N=O)N1C(=O)SCC(c2ccccc2)(c2ccccc2)C1=O")
"33.3 µM (inactive)"

Now for a further compound.
**Query** // returns reported GI50 for input "O=[N+]([O-])C(/C(Cl)=C(/Cl)N1CCOCC1)=C1\NCCO1"
**Result** > 100 µM (inactive)

====

# Test system: CAKI-1
# experimentSummary: NCI tumour cell line growth inhibition, 48 h
Activity calls are given as the source filed them. Cut-off read from the data, not from the text of the source: active = GI50 up to about 1.1 µM and inactive = higher.
measurementName: GI50

Illustrative cases are given below, each with its answer.
>>> testvalue("COC(=O)C1=C(C(=O)OC)SC(=C2S[C@@H]3[C@@H]4C[C@H]([C@@H]3S2)[C@H]2C(=O)OC(=O)[C@@H]42)S1")
"> 100 µM (inactive)"
>>> testvalue("CCN(CC)CCn1c2ccccc2c(=O)c2c(OC)ccc(OC)c21")
"68.5 µM (inactive)"
>>> testvalue("CN(c1ccc(C(=O)c2ccc(N(C)S(C)(=O)=O)cc2)cc1)S(C)(=O)=O")
"> 100 µM (inactive)"

Now for a further molecule.
**Query** // returns reported GI50 for input "COc1ccc2c(c1)[n+]([O-])c(C(C)=O)c(C)[n+]2[O-]"
**Result** > 100 µM (inactive)

====

# Tested on: HOP-62
# experimentSummary: NCI tumour cell line growth inhibition, 48 h
Active and inactive are the calls of the source. No stated cut-off is given here; in the data, active = GI50 up to about 1.1 µM and inactive = higher.
Exercise: state measured GI50 for each of the compounds provided.

For each of the compounds below, state GI50.
1. COc1ccc(CC2COc3cc(O)cc(O)c3C2=O)cc1O (stereo not given)
2. CN(C(=O)Cc1ccccc1)n1cn[n+](CC(=O)OC(C)(C)C)c1
3. O=C1OC(=O)c2c1c(-c1ccccc1)cn2-c1ccc(Cl)cc1
4. Nc1nc(-c2ccc3ccccc3c2)cc(-c2cc(-c3ccc4ccccc4c3)nc(N)n2)n1
5. O=C(c1ccco1)N(C(=S)N1CCN(c2ccccc2)CC1)c1ccccc1

**Result**
["5.13 µM (inactive)", "> 10 µM (inactive)", "14.6 µM (inactive)", "> 100 µM (inactive)", "> 100 µM (inactive)"]

====

# Tested on: LOX IMVI
# experimentSummary: NCI tumour cell line growth inhibition, 48 h
Active and inactive are the calls of the source. Cut-off read from the data, not from the text of the source: active = GI50 up to about 1.1 µM and inactive = higher.
measurementName: GI50

Illustrative cases are given below, each with its answer.
>>> testvalue("COc1ccc(/C=C/C(=O)c2sc(N)nc2C)cc1")
"> 100 µM (inactive)"
>>> testvalue("COc1cc(C2(C)SCCCS2)cc(OC)c1OC")
"> 100 µM (inactive)"
>>> testvalue("COc1ccc(/C=C2\\Sc3nnc(-c4ccccc4)n3N=C2c2cc(F)c(Cl)cc2Cl)cc1OC")
"> 100 µM (inactive)"
>>> testvalue("Oc1c2ccccc2c2c3c(cccc13)N=N2 [SP-600125]")
"12.8 µM (inactive)"
>>> testvalue("Nc1ccc2cc(S(=O)(=O)O)cc(O)c2c1/N=N/c1ccc(NC(=O)Nc2ccc(/N=N/c3c(N)ccc4cc(S(=O)(=O)O)cc(O)c34)c(S(=O)(=O)O)c2)cc1S(=O)(=O)O")
"> 100 µM (inactive)"

For each of the compounds below, state GI50.
1. O=C(/C=C/c1ccc(OCCSCCCCCCCCCCSCCOc2ccc(/C=C/C(=O)c3ccc(Cl)cc3)cc2)cc1)c1ccc(Cl)cc1
2. Cc1c[nH]c(C(=O)O)c1-c1cccn1-c1ccc(Cl)cc1[N+](=O)[O-]
3. CN(CC(=O)O)c1ncc2c(n1)-c1ccccc1OC2c1ccccc1 (centres undefined)
4. CC1=C(C)SC(=C2Sc3[n-]c(=O)[nH]c(=O)c3S2)S1.CCCC[N+](CCCC)(CCCC)CCCC

**Result**
["> 100 µM (inactive)", "> 100 µM (inactive)", "> 100 µM (inactive)", "44.6 µM (inactive)"]

====

# Tested on: DU-145
# experimentSummary: NCI tumour cell line growth inhibition, 48 h
The source made the active and inactive calls. Cut-off read from the data, not from the text of the source: active = GI50 up to about 1.1 µM and inactive = higher.
measurementName: GI50

Illustrative cases are given below, each with its answer.
>>> testvalue("CC12C3C4C1C1C2C3C41CO (stereo not given)")
"> 100 µM (inactive)"
>>> testvalue("COC(=O)C(C)(C)[C@@H]1OC(=O)N(S(=O)(=O)c2c(C)cc(C)cc2C)[C@H]1C(C)C")
"> 100 µM (inactive)"
>>> testvalue("Cc1ccc(O)c(C(c2ccc([N+](=O)[O-])cc2)c2cc(C)ccc2O)c1")
"12.1 µM (inactive)"
>>> testvalue("FC(F)(F)c1ccc(/N=N/N2CCCC2)cc1")
"> 100 µM (inactive)"
>>> testvalue("CCSC1=N/C(=C\\c2ccco2)C(Cl)=N1")
"> 100 µM (inactive)"

For each of the molecules below, state GI50.
1. O=C(O)C(=C\c1ccc2c(c1)OCO2)/C(=C/c1ccc2c(c1)OCO2)C(=O)O
2. CC1C(c2cc(C(C)(C)C)c(O)c(C(C)(C)C)c2)c2cc3c(cc2OC1N1CCOCC1)OCO3 (stereo not given)
3. C[C@]12CC[C@H](O)C=C1CC[C@@H]1[C@@H]2CC[C@]2(C)C(=N/O)/C(=C/c3ccncc3)C[C@@H]12
4. COC1OC2COC1(OC)C1OC(C)(C)OC21 (stereo not given)

**Result**
["> 100 µM (inactive)", "30.1 µM (inactive)", "6.34 µM (inactive)", "> 100 µM (inactive)"]

**Query** // returns reported GI50 for input "COc1ccc(/C=C2\Sc3nnc(-c4ccccc4)n3N=C2c2cc(F)c(Cl)cc2Cl)cc1OC"
**Result** > 100 µM (inactive)
